Protocol summary: soluble fraction after stress (log2 fold change); higher = more stays soluble; pooled small domains, quantitative proteomics
Condition set: stress: pH 4
soluble fraction (log2) vs -0.7: at or above is rule met, below is rule not met.

[
  {
    "Ordered residues": "HMTPVSQIATKDIEEKIDSLSDEYKDPFILHFKGFKYKEIADQLDIPIGTVKSRIFIARKKLIDLLPDY",
    "Discrete label": "rule met"
  },
  {
    "Ordered residues": "HMENAEALLKKLSGVLSDYEYKMLMLYADGKTPRRIAQETGQSAKSVSNALFRARTKLKELYEDQ",
    "Discrete label": "rule met"
  },
  {
    "Ordered residues": "HMKITTKNYFKAIAEVGVENLPAALKKSHDLIEERTSKGADWSVYEHDAEVRRVFDLTFEKLFEFIDQ",
    "Discrete label": "rule not met"
  },
  {
    "Ordered residues": "HMGVISRVITFWQNGFTVDDGPLRAFDDPANMAFMESIGRGEAPAELAPKTRTQRVNINLVQRHEPYSAPK",
    "Discrete label": "rule not met"
  },
  {
    "Ordered residues": "HMNTAALSLQRRNEIKKWLLEEKTLTVAALSNRFNVTYETIRRDLEILEKEGFLKKVYGGAALNERV",
    "Discrete label": "rule met"
  }
]

Reported soluble fraction (log2) at or above -0.7? HMTPPAQQPHEGLPTDETATDAKTLVQKSRWWLEEEQRQREAGNTAYAERIRLALIQLLYRAERA
rule met

State whether the measured soluble fraction (log2) reaches -0.7, counting equality as reaching it, for HMTFEPVYDENSRILILGTFPSVKSREQQFYYGHPQNRFWKLLAALTGWKVPKTISEKKELLLQNGIA
rule met

# check: soluble fraction (log2) of HMEIYIDGNKYVGELRNGKPNGRGTITYTGDGSKYVGEWKNGKRYGRGKMAYTNGTTKEGVWKDDEFLYAT is greater than or equal to -0.7
rule met

Given the entry HMKKAITMGDIITVKELSEKIGIQVAEIIKKLMGLGILATINKELDYDTANVIASEFHIELERK , answer whether its soluble fraction (log2) meets or surpasses -0.7.
rule met

Reported soluble fraction (log2) reaches at least -0.7 for HMINIDESIDESLSEDDAVLDLLERASASFTKAQEALLEGDLGRYQTLIEQADRLVAKALELLDEKN ?
rule not met

Check this sequence for soluble fraction (log2) at or above -0.7: HMKSLHSEVTDRIRQLIVESHLQPGQRVPELEISRDLGVSRTPIREALKVLAAEGLVELLPLRGAMVK
rule met

###

Protocol summary: soluble fraction after stress (log2 fold change); higher = more stays soluble; pooled small domains, quantitative proteomics
Condition set: stress: pH 4
Decide by soluble fraction (log2): equal to or exceeding -0.3 means t, less means f.

Could you verify whether the entry HMSTTSYTQFMEDAKAGKIARVDIKGREITVTPTEGSRYVITSPGDLWMVDDLRKDGVQVYGPP shows soluble fraction (log2) of no less than -0.3?
t

###

Protocol summary: soluble fraction after stress (log2 fold change); higher = more stays soluble; pooled small domains, quantitative proteomics
Condition set: stress: pH 4
Categories are defined by ranges of soluble fraction (log2), namely low interval (below -0.5), middle interval (-0.5 to below 0.009), high interval (0.009 or more)

Would you please look over these solved cases?
[
  {
    "Ordered residues": "HMLPKILVMDGKVNKNALTTLGKDEEWVKKVLRNHNIHSIKDVLLALYDTKGKFQYQLYDDYEK",
    "Discrete label": "middle interval"
  },
  {
    "Ordered residues": "HMKTFSFEILADTVKKQRKAKGMTQAELSEATGINRSMIGQMENMTFKPSIEQLEALSQALDFNVIDLYTE",
    "Discrete label": "low interval"
  },
  {
    "Ordered residues": "HMNSKIIVESIIKSKNGIAKVADLVEGGVSRQSIKKMYADGYIKRISRGYYTLTSEPVSSDEQVISS",
    "Discrete label": "high interval"
  },
  {
    "Ordered residues": "HMKSERHALILSLIEKKNVETQEDLAELLKERGVAVTQATVSRDIKELRLIKVLSETGGYKYATVDKAE",
    "Discrete label": "high interval"
  },
  {
    "Ordered residues": "HMTEELLNQRKETMLALLNDPTYVPMKLKELAMLLNLSRDQRDELREVMESLEQDGKVILTKRGKYKIP",
    "Discrete label": "middle interval"
  },
  {
    "Ordered residues": "HMEVSYSLPRFHKGKNPYVDFYQVDPRTLRMRRKKFLLRGVRDAVLLEQRAADLVALLTERLHSGWNAWDD",
    "Discrete label": "middle interval"
  },
  {
    "Ordered residues": "HMLSLTSRQQEIFDLIKGHIKKTGMPPTRSEIALHFGFRSANSAEEHLRALARKGFIELIPGTSRGIKLIE",
    "Discrete label": "high interval"
  },
  {
    "Ordered residues": "HMASAKTVAQSGTYKFAKTTAIKSSASDAASTVGTYYKGNTVNYNAKVTTNGQTWLRYTSYSGAQYYVKVS",
    "Discrete label": "high interval"
  }
]

Looking at HMPNIHVVFAEEWTDRRLDKVLSEYFDGYSRSFIKKLFDDGLILVNSKAVKPSYKVRAGDMIDISVPDPV , which class would you pick?
middle interval

Band assignment needed for HMYPDNEQTLSKLAFEFFKKRNIPISQSNINQIVTKSLGDRENLYNELLKIENFSTSGKKLTDNVIKKLIN please.
high interval

Classify this sequence: HMFTEIMAERNALIQAIQQNLPPQHIQSILSKKNKFRLEDLTNEELRDVWQWILNQRQAQQHQQQ
middle interval

State the class of the sequence shown: HMPPNPELGKKLLKLRKEFKMTQDDVANILGMSRTSFSKYENGIANPPLQVMRKLASIYNVGLEYLI
middle interval

###

Protocol summary: soluble fraction after stress (log2 fold change); higher = more stays soluble; pooled small domains, quantitative proteomics
Condition set: stress: pH 4
Measured metric: soluble fraction (log2)
Lab note: write the figure by itself, no unit.

// worked examples, soluble fraction (log2) included
[
  {
    "Ordered residues": "HMETYPINVETTGTNVLLRTGPSTSSNIIKTITDKGTVFLSIERGINSDWQKVVTPDGTIGYMSGKY",
    "soluble fraction (log2)": -0.314
  },
  {
    "Ordered residues": "HMIKKAILPVAGLGTRFLPASKSIPKEMVTVVDRPAIEYVVREAVEAGIEQIILVTHSSKASIENYFDR",
    "soluble fraction (log2)": -0.217
  },
  {
    "Ordered residues": "HMETNFTGTRIATARKAKNMSQAQLAQQLFISPQAVGKWERGESIPDIVTVVKLADVLGVDLNYFSE",
    "soluble fraction (log2)": -0.403
  },
  {
    "Ordered residues": "HMQESTPGEGYKWREDVLLRVMSQNGIDESLRDEFVRHAVNYDIDDNMYLKKAEIESAAEAWVLENS",
    "soluble fraction (log2)": -1.92
  },
  {
    "Ordered residues": "HMAQMDDPEMVLHIYNKMIQQRLFDTAVGYSYLKDLQEYLQSIPFIRKEDIFPIPVQHPQVEESLRKAK",
    "soluble fraction (log2)": 0.0635
  }
]

State the recorded soluble fraction (log2) for this entry: HMKMDGESQRLLSLIKEQGGSLPIGDKSSPEAIYRLTQMSKKTFKMALGSLYKAKQVVLSPTEVRL
0.0519

What does the data say about its soluble fraction (log2)? Entry: HMQMKDRILRIMEHEGISPSKFAEEIGIQRSAMSHIISGRNNPSLDVLTKIMQRFTYVDTDWLLFGKGSMV
-0.334

Field request: soluble fraction (log2) | item: HMRVGISRNSGAAGIAVWLTQKLGRPVAKTEEIVHILKNWVDDQYEAGRVTNIGDGELWSVYKQMEAEE
0.0584

###

Protocol summary: soluble fraction after stress (log2 fold change); higher = more stays soluble; pooled small domains, quantitative proteomics
Condition set: stress: pH 4
Form field: soluble fraction (log2) (one value per entry).
Answer using only a numeral; do not append any unit.

[
  {
    "Ordered residues": "HMESLGEKIKNIRISNNLKQSELADILHISEKTISSWENNRTTPDLNMIYKISNYFKKSFYYLISDDYI",
    "Measured metric": "soluble fraction (log2)",
    "Reported value": -0.283
  },
  {
    "Ordered residues": "HMSDTSELESIIAQIIEDNPKSIEDIGAGNQKAYGFLTGQVMKATKGQANPQVANKIIRELVARKLE",
    "Measured metric": "soluble fraction (log2)",
    "Reported value": -0.41
  }
]

May I ask what soluble fraction (log2) has been recorded for HMSDDSTIVELLASSLRRDIAFGTLLPDQKLKLNELRTRYGGSIHSMRETLRILSAEGLVEATAQRGFRVT ?
-0.395

Any idea what soluble fraction (log2) was measured for HMTGGLTQEQISQLRMLTPQQIEQLRQLQPQQVEMLRQLRPEQVMLLTQLEPQQIMAFMRLEPSVIMQL ?
-0.657

The reported numbers originate from the domain aggregation screens of Martell et al. (2025).
